- Target of assay: APOL1 G2 (Homo sapiens, UniProt O14791, DEL388-389)
- Construct: expressed in transfected cells; host or cells: HEK293 T-REx clonal line stably expressing GCaMP6f (HEK T-REx/GCaMP6f/APOL1 G2 K6.3), doxycycline induced
- Sequence (O14791 with tags, fused parts or gaps DEL388-389): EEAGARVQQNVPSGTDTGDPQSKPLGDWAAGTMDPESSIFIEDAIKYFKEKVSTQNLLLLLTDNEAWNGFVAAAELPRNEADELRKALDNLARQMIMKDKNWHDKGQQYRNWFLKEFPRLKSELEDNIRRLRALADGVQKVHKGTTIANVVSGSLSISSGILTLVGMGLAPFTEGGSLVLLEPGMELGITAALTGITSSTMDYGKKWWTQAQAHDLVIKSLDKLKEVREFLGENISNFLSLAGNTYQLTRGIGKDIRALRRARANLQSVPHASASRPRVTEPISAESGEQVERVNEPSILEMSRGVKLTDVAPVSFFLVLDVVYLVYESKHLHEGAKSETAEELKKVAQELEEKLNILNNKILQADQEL
- Assay details: APOL1-mediated calcium transport (calcium influx) assay, HEK T-REx/GCaMP6f/APOL1 G2 K6.3 cells, FLIPR TETRA
- Type: cell-based
- Test context: prevention of calcium influx; geometric mean of at least 2 assay runs; † = average of a technical replicate from a single assay run
In this section we review reported AC50 values for a set of compounds.
Give the value in nM but do not write nM after it.

Known results for compounds:
Compound | AC50, nM
O=C1Nc2ccc(Cl)cc2C12CCN(CCOc1cnc(N3CC4(C3)CS(=O)(=O)C4)nc1)CC2 [Compound 304] | 1010
N#Cc1ccc2c(c1)C1(CCN(CCOc3ccc4c(c3)CCN3C(=O)NCC43)CC1)C(=O)N2 (stereo not shown) [Compound 118] | 1040

Now for another entry.
Prompt: I have this compound here, CC1(Oc2ncc(OCCN3CCC4(CC3)C(=O)Nc3ccc(Cl)cc34)cn2)COC1 [Compound 172] , and I need its recorded AC50.
Completion: 479

* * *

- System: Trypanosoma brucei Lister 427 VSG221 with APOL1 G1 recombinant protein
- Assay details: APOL1 G1 trypanosome cell rescue assay (Example B5)
- Assay type: cell-based
- Test context: Trypanosoma brucei, 20 h, read-out: APOL1 G1 Trypanosome Rescue EC50, Trypanosoma brucei Lister 427 VSG221 with APOL1 G1 recombinant protein, 20 hours, CellTiter-Glo; geometric mean of at least 2 assay runs; † = single assay run
Measured attribute: pEC50
Quick note: pEC50 values are minus log10 of concentrations in mol/L.

Molecule | pEC50
CC1(O)CN(c2ncc(OCCN3CCC4(CC3)C(=O)Nc3ccc(Cl)cc34)cc2C(F)(F)F)C1 [Compound 405] | 7.67
CS(=O)(=O)C1(c2ncc(OCCN3CCC4(CC3)C(=O)Nc3ccc(C#N)cc34)cc2F)CC1 [Compound 283] | 6.63
O=C1CCc2cc(OCCN3CCC4(CC3)C(=O)Nc3ccc(Cl)cc34)cnc2N1[C@H]1C[C@H](O)C1 [Compound 267] | 6.94
O=C1CCc2cc(OCCN3CCC4(CC3)C(=O)Nc3ccc(Cl)cc34)ccc2N1 [Compound 82] | 6.46
CC(C)[C@]1(O)C[C@@H](N2C(=O)CCc3cc(OCCN4CCC5(CC4)C(=O)Nc4ccc(Cl)cc45)cnc32)C1 [Compound 317] | 7.47
CS(=O)(=O)C1CN(C(=O)c2ccc(OCCN3CCC4(CC3)C(=O)Nc3ccc(Cl)cc34)cc2F)C1 [Compound 233] | 6.87

Now for another entry.
Prompt: I have this molecule here, CN1C(=O)CCc2cc(OCCN3CCC4(CC3)C(=O)Nc3ccc(Cl)cc34)cnc21 [Compound 78] , and I need its recorded pEC50.
Completion: 7.01

* * *

- System: HEK293 cells overexpressing APOL1 G2
- Assay details: APOL1 G2 HEK293 cell rescue assay (reversal of cell death caused by overexpression of APOL1)
- Format: cell-based
- Test context: Homo sapiens, HEK293, HEK293 overexpressing APOL1 G2; geometric mean of at least 2 assay runs; † = single assay run
Labels assigned by EC50 range: low bracket: < 70 nM; middle bracket: ≥ 70 nM and < 100 nM; high bracket: ≥ 100 nM

Compound | Category
CN1C(=O)CCc2cc(OCCN3CCC4(CC3)C(=O)Nc3ccc(C#N)cc34)ccc21 | high bracket

Query compound follows.
Prompt: Band of O=C1CCc2cc(OCCN3CCC4(CC3)C(=O)Nc3ccc(Cl)cc34)ccc2N1[C@H]1C[C@H](O)C1 ?
Completion: low bracket

* * *

- Test system: HEK293 clonal cell line overexpressing APOL1 G1
- Assay details: APOL1 G1 HEK293 cell rescue assay (Example B3)
- Type: cell-based
- Test context: Homo sapiens, HEK293, HEK293 clonal line overexpressing APOL1 G1; geometric mean of at least 2 runs; † = single run; ¥ = concentration at 50% rescue estimated (no sigmoidal curve)
Labels assigned by EC50 range: lower bin (below 0.1 µM), middle bin (0.1 µM to below 0.3 µM), upper bin (0.3 µM or more)

Record excerpt, results attached:
Molecule | Target of assay | Category
CN(C)C(=O)C1(S(=O)(=O)c2ccc(OCCN3CCC4(CC3)C(=O)Nc3ccc(Cl)cc34)cc2)CC1 | HEK293 clonal cell line overexpressing APOL1 G1 | middle bin
CS(=O)(=O)c1ccc(OCCN2CCC3(CC2)C(=O)N([C@H]2C[C@@H](O)C2)c2ccccc23)cc1 | HEK293 clonal cell line overexpressing APOL1 G1 | upper bin
[2H]C([2H])(Oc1cnc2c(c1)CCC(=O)N2[C@H]1C[C@](O)(C([2H])([2H])[2H])C1)C([2H])([2H])N1CCC2(CC1)C(=O)Nc1ccc(Cl)cc12 | HEK293 clonal cell line overexpressing APOL1 G1 | lower bin
C[C@]1(O)C[C@@H](n2nnc3cc(OCCN4CCC5(CC4)C(=O)Nc4ccc(Cl)cc45)cnc32)C1 | HEK293 clonal cell line overexpressing APOL1 G1 | middle bin
CS(=O)(=O)c1ccc(OCCN2CCC3(CC2)C(=O)N(C2COC2)c2ccc(Cl)cc23)cc1 | HEK293 clonal cell line overexpressing APOL1 G1 | upper bin

Prompt: Band of Cc1cc(OCCN2CCC3(CC2)C(=O)Nc2ccc(C#N)cc23)cnc1S(C)(=O)=O ?
Completion: upper bin

Prompt: Moving on to the next molecule: CC1(C)OC(=O)c2cc(OCCN3CCC4(CC3)C(=O)Nc3ccc(Cl)cc34)cnc21
Completion: lower bin

Prompt: Moving on to the next molecule: O=C(c1ccc(OCCN2CCC3(CC2)C(=O)Nc2ccc(Cl)cc23)cc1F)N1CCS(=O)(=O)CC1
Completion: middle bin

Prompt: Moving on to the next molecule: CS(=O)(=O)N(CCO)c1ccc(OCCN2CCC3(CC2)C(=O)Nc2ccc(Cl)cc23)cc1
Completion: middle bin

Prompt: Moving on to the next molecule: C[C@]1(O)C[C@@H](n2c(=O)n(CO)c3cc(OCCN4CCC5(CC4)C(=O)Nc4ccc(C#N)cc45)cc(C(F)(F)F)c32)C1
Completion: lower bin

Prompt: Moving on to the next molecule: C[C@]1(O)C[C@@H](n2cnc3cc(OCCN4CCC5(CC4)C(=O)Nc4ccc(Cl)cc45)cnc32)C1
Completion: middle bin

Prompt: Moving on to the next molecule: CC(c1ccc(OCCN2CCC3(CC2)C(=O)Nc2ccc(C#N)cc23)cc1)S(C)(=O)=O (stereo not drawn) [Compound 133]
Completion: upper bin

Prompt: Moving on to the next molecule: O=C(NC1CCS(=O)(=O)CC1)c1ccc(OCCN2CCC3(CC2)C(=O)Nc2ccc(Cl)cc23)cc1F
Completion: middle bin

* * *

- Tested on: HEK293 cells overexpressing APOL1 G2
- Assay details: APOL1 G2 HEK293 cell rescue assay (reversal of cell death caused by overexpression of APOL1)
- Format: cell-based
- Test context: Homo sapiens, HEK293, HEK293 overexpressing APOL1 G2; geometric mean of at least 2 assay runs; † = single assay run
Measured attribute: pEC50
Quick note: pEC50 values are minus log10 of concentrations in mol/L.

Known results for compounds:
Compound | pEC50
[2H]C([2H])(Oc1cc(C(F)(F)F)c2c(c1)ncn2[C@H]1C[C@@](C)(O)C1)C([2H])([2H])N1CCC2(CC1)C(=O)Nc1ccc(Cl)cc12 [Compound 463] | 8.23
CS(=O)(=O)c1ccc(OCCN2CCC3(CC2)C(=O)Nc2ccc(C#N)cc23)cc1OC(F)F [Compound 164] | 6.99

Prompt: I have this compound here, O=C1CCc2cc(OCCN3CCC4(CC3)C(=O)Nc3ccc(Cl)cc34)ccc2N1CCO [Compound 162] , and I need its recorded pEC50.
Completion: 7.24

* * *

- Test system: HEK293 clonal cell line overexpressing APOL1 G1
- Assay details: APOL1 G1 HEK293 cell rescue assay (Example B3)
- Type: cell-based
- Test context: Homo sapiens, HEK293, HEK293 clonal line overexpressing APOL1 G1; geometric mean of at least 2 runs; † = single run; ¥ = concentration at 50% rescue estimated (no sigmoidal curve)
Measured attribute: pEC50
Quick note: pEC50 values are minus log10 of concentrations in mol/L.

Known results for compounds:
Compound | Readout number
CS(=O)(=O)C1(c2ccc(OCCN3CCC4(CC3)C(=O)Nc3ccc(Cl)cc34)cc2)CC2(COC2)C1 [Compound 182] | 6.65
CS(=O)(=O)Nc1ccc(OCCN2CCC3(CC2)C(=O)N(CCO)c2ccc(Cl)cc23)cc1C(F)(F)F [Compound 186] | 7.01
C[C@]1(O)C[C@@H](n2cnc3cc(OCCN4CCC5(CC4)C(=O)Nc4ccc(Cl)cc45)cc(OC(F)F)c32)C1 [Compound 447] | 7.19

Now for another entry.
Prompt: I have this compound here, CCC1(O)CC(N2C(=O)CCc3cc(OCCN4CCC5(CC4)C(=O)Nc4ccc(Cl)cc45)cnc32)C1 (stereo not shown) [Compound 318] , and I need its recorded pEC50.
Completion: 7.18
